Settings: in tert-butanol, 323.15 K
Measured quantity: solubility (mole fraction)
Simply state the number, no unit and no words.

In: Provide only the value of recorded solubility (mole fraction) for Nc1ccnc(=O)[nH]1
Out: 0.000848

* * *

Conditions: in water, 303.15 K
Measured quantity: solubility (mole fraction)
Simply state the number, no unit and no words.

In: Provide only the value of recorded solubility (mole fraction) for Nc1ccnc(=O)[nH]1
Out: 0.00145

* * *

Settings: in n-butanol, 328.15 K
Measured quantity: solubility (mole fraction)
Simply state the number, no unit and no words.

In: Provide only the value of recorded solubility (mole fraction) for Nc1ccnc(=O)[nH]1
Out: 0.000439

* * *

Conditions: in DMSO, 323.15 K
Measured quantity: solubility (mole fraction)
Simply state the number, no unit and no words.

In: Provide only the value of recorded solubility (mole fraction) for Nc1ccnc(=O)[nH]1
Out: 0.0145

* * *

Details: in n-butanol, 298.15 K
Measured quantity: solubility (mole fraction)
Simply state the number, no unit and no words.

In: Provide only the value of recorded solubility (mole fraction) for Nc1ccnc(=O)[nH]1
Out: 0.000221

* * *

Conditions: in methanol, 313.15 K
Measured quantity: solubility (mole fraction)
Simply state the number, no unit and no words.

In: Provide only the value of recorded solubility (mole fraction) for Nc1ccnc(=O)[nH]1
Out: 0.00125

* * *

Details: in n-octanol, 293.15 K
Measured quantity: solubility (mole fraction)
Simply state the number, no unit and no words.

In: Provide only the value of recorded solubility (mole fraction) for Nc1ccnc(=O)[nH]1
Out: 0.000108

* * *

Conditions: in isobutanol, 298.15 K
Measured quantity: solubility (mole fraction)
Simply state the number, no unit and no words.

In: Provide only the value of recorded solubility (mole fraction) for Nc1ccnc(=O)[nH]1
Out: 0.000175

* * *

Details: in isopropanol, 328.15 K
Measured quantity: solubility (mole fraction)
Simply state the number, no unit and no words.

In: Provide only the value of recorded solubility (mole fraction) for Nc1ccnc(=O)[nH]1
Out: 0.000412

* * *

Details: in water, 298.15 K
Measured quantity: solubility (mole fraction)

In: Provide only the value of recorded solubility (mole fraction) for Nc1ccnc(=O)[nH]1
Out: 0.00112

* * *

Conditions: in DMSO, 313.15 K
Measured quantity: solubility (mole fraction)
Simply state the number, no unit and no words.

In: Provide only the value of recorded solubility (mole fraction) for Nc1ccnc(=O)[nH]1
Out: 0.0129

* * *

Conditions: in isopentanol, 313.15 K
Measured quantity: solubility (mole fraction)

In: Provide only the value of recorded solubility (mole fraction) for Nc1ccnc(=O)[nH]1
Out: 0.000344

* * *

Conditions: in n-propanol, 308.15 K
Measured quantity: solubility (mole fraction)
Simply state the number, no unit and no words.

In: Provide only the value of recorded solubility (mole fraction) for Nc1ccnc(=O)[nH]1
Out: 0.000329

* * *

Settings: in methanol, 323.15 K
Measured quantity: solubility (mole fraction)
Simply state the number, no unit and no words.

In: Provide only the value of recorded solubility (mole fraction) for Nc1ccnc(=O)[nH]1
Out: 0.00159

* * *

Conditions: in isopropanol, 313.15 K
Measured quantity: solubility (mole fraction)

In: Provide only the value of recorded solubility (mole fraction) for Nc1ccnc(=O)[nH]1
Out: 0.000283
